- ASSAY METHOD TEXT: in vivo
- CONDITION LABEL: male, Sprague-Dawley, rat, iv, 2 mg/kg, R (ratio of concentration between CSF and bloodstream) at CSF Tmax
READOUT NAME: Kp at 30 min

Ask: Kp at 30 min for C=C1CC/C=C(\C)CC[C@@H]2[C@@H]1CC2(C)C ?
Reply: 0.13

---

- ASSAY METHOD TEXT: in vivo
- CONDITION LABEL: male, Sprague-Dawley, rat, iv, 2 mg/kg, AUC, cerebrospinal fluid (CSF)
- Protocol: Male Sprague-Dawley rats (200–250 g) were purchased from the Charles River laboratories (Calco, Italy). […] At the end of the intravenous and oral administrations and at fixed time points, blood samples (100 μL) were collected. […] The CSF samples (10 μL) were immediately analyzed via HPLC (see below) for the quantification of BCA. […] Finally, 10 μL was analyzed via HPLC (see below) for BCA quantification. […]
READOUT NAME: AUC (ng·h/mL)
Give bare numbers, in ng·h/mL.

Ask: Need AUC, item C=C1CC/C=C(\C)CC[C@@H]2[C@@H]1CC2(C)C
Reply: 6290

---

- ASSAY METHOD TEXT: in vivo
- CONDITION LABEL: male, Sprague-Dawley, rat, iv, 2 mg/kg, R (ratio of concentration between CSF and bloodstream)
READOUT NAME: Kp at 60 min
Give bare numbers.

Ask: Query: Kp at 60 min; subject: C=C1CC/C=C(\C)CC[C@@H]2[C@@H]1CC2(C)C [BCA, β-Caryophyllene]
Reply: 0.08

---

- ASSAY METHOD TEXT: in vivo
- CONDITION LABEL: male, Sprague-Dawley, rat, po, 50 mg/kg, AUC, bloodstream
READOUT NAME: AUC (ng·h/mL)
Numbers only, in ng·h/mL.

Ask: State the recorded AUC for this entry: C=C1CC/C=C(\C)CC[C@@H]2[C@@H]1CC2(C)C
Reply: 56800

---

- ASSAY METHOD TEXT: in vivo
- CONDITION LABEL: male, Sprague-Dawley, rat, iv, 2 mg/kg, Tmax, cerebrospinal fluid (CSF)
READOUT NAME: Tmax (min)
Numbers only, in min.

Ask: May I ask what Tmax has been recorded for C=C1CC/C=C(\C)CC[C@@H]2[C@@H]1CC2(C)C [BCA, β-Caryophyllene] ?
Reply: 30

---

- ASSAY METHOD TEXT: in vivo
- CONDITION LABEL: male, Sprague-Dawley, rat, iv, 2 mg/kg, AUC, bloodstream
READOUT NAME: AUC (µg·h/mL)
Numbers only, in µg·h/mL.

Ask: Given the entry C=C1CC/C=C(\C)CC[C@@H]2[C@@H]1CC2(C)C , report its measured AUC.
Reply: 108

---

- ASSAY METHOD TEXT: in vivo
- CONDITION LABEL: male, Sprague-Dawley, rat, po, 50 mg/kg, Tmax, bloodstream
READOUT NAME: Tmax (h)
Give bare numbers, in h.

Ask: What Tmax value was documented for this molecule, C=C1CC/C=C(\C)CC[C@@H]2[C@@H]1CC2(C)C ?
Reply: 1

---

- ASSAY METHOD TEXT: in vivo
- CONDITION LABEL: male, Sprague-Dawley, rat, po, 50 mg/kg, AUC, cerebrospinal fluid (CSF)
READOUT NAME: AUC (ng·h/mL)
Give bare numbers, in ng·h/mL.

Ask: Would you mind telling me what AUC value was observed for C=C1CC/C=C(\C)CC[C@@H]2[C@@H]1CC2(C)C [BCA, β-Caryophyllene] ?
Reply: 313
